The following compounds are listed with their measured IC50 values.
system tested: cyclin D2-Cdk6 (Homo sapiens, UniProt Q00534)
Sequence (Q00534 whole entry): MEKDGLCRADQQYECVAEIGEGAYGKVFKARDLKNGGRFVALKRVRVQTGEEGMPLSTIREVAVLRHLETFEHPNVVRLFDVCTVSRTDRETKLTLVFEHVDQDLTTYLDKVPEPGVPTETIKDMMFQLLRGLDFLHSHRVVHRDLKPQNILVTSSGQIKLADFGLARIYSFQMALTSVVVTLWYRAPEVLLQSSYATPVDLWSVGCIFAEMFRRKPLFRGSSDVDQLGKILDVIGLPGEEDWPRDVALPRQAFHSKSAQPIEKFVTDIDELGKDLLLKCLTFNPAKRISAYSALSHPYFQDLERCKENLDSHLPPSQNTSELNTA
Sequence (P30279 whole entry partner): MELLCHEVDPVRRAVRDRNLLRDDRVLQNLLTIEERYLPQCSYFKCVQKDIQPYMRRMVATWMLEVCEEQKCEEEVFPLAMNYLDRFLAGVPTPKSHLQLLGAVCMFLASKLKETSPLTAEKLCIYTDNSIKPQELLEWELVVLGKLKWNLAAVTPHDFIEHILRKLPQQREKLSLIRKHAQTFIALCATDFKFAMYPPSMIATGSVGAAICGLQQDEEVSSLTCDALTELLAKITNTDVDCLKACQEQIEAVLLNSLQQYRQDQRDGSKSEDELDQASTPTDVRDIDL
experiment: Cdk6 inhibitory action: cyclin D2-Cdk6 kinase activity
measurement setup: cyclin D2-Cdk6, 50 μM ATP
Entry rule: numbers only, all in nM.

Recorded IC50, per entry:
Cc1cc(-c2cnc(Nc3cnc(CN4CCN(C)CC4)cn3)s2)nc(OC2CCCCC2)n1
7.8
Cc1cc(-c2cnc(Nc3cnc(CN4CCCC4)cn3)s2)nc(SC2CCCCC2)n1
7.3
Cc1cc(-c2cnc(Nc3cnc(CNC(C)C)cn3)s2)nc(SC2CCCCC2)n1
9.3

Just so you know, measured IC50 for CC(=O)N1CCN(Cc2ccc(Nc3ncc(-c4cc(C)nc(OC5CCCCC5)n4)s3)nc2)CC1 came out at 17

response.value for Cc1cc(-c2cnc(Nc3cnc(CN4CCC(N(C)C)C4)cn3)s2)nc(OC2CCCCC2)n1 (stereo not drawn) (field: IC50) = 13

Note to self: IC50 recorded for Cc1cc(-c2cnc(Nc3cnc(CN4CCC(N(C)C)C4)cn3)s2)nc(SC2CCCCC2)n1 (stereo not drawn) was 16
